Data origin: PubChem BioAssay (Tox21)

- Measurement description: Caspase-3/7 induction in CHO-K1 cells by small molecules, qHTS cell viability counter screen (AID 1346979); further: nearly all actives have a fitted effect of over 35% in size
- Experimental conditions: CellTiter-Fluor fluorescence, 17 h; series mostly up to 92.4 µM
Records with an inconclusive call do not appear. The source made the active and inactive calls. The call rests on the fitted dose curve; in most records, active means well fitted cell-killing curve with a large enough effect in the repeat runs; inconclusive means weak or mixed curves, or effect the other way; inactive means no such curve, though single readings can be large or run the other way.
Respond with a class label; see Y (active), N (inactive)

# outcome recorded in this test, key = "O=S(=O)(Oc1ccc(Cl)cc1)c1ccc(Cl)cc1"
N

Subsequent entry: "CCC(=O)O[C@H]1CC[C@H]2[C@@H]3CCC4=CC(=O)CC[C@]4(C)[C@H]3CC[C@]12C"
N

Subsequent entry: "O=C1C=CC(=O)C=C1"
N

Subsequent entry: "CCOCN(C(=O)CCl)c1c(C)cccc1CC"
Y

Subsequent entry: "CCCCN(CCCC)N=O"
N

Subsequent entry: "CCC(CC)Nc1c([N+](=O)[O-])cc(C)c(C)c1[N+](=O)[O-]"
N
